Data credit: paper PMC5725882

- Target: T1, ND1p97wt (N-D1 fragment of wild-type p97, residues 1-480) (UniProt P55072 1-480)
- T1 construct: p97 (valosin-containing protein, VCP), N-D1 long fragment, residues 1-480, wild type; also called N-D1 long; ND1p97 (residue 1-480)
- T1 sequence (P55072 1-480): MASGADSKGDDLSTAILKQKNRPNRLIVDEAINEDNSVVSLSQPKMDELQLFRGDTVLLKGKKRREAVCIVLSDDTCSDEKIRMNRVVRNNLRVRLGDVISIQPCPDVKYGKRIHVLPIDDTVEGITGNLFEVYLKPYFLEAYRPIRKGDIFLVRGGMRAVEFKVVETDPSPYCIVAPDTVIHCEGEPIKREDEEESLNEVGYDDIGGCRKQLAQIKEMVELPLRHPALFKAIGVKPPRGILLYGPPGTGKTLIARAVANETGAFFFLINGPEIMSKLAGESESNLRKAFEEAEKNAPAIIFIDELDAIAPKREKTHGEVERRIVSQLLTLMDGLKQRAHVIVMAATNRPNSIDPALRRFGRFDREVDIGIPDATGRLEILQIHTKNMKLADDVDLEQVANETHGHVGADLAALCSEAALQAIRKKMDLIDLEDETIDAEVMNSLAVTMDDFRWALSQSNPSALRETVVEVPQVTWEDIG
- Assay summary: ITC; VIMPx titrated into p97; iTC200, 25 C; 50 mM Tris pH 8.0, 150 mM NaCl, 2 mM MgCl2, 5% glycerol; 2 mM ADP in both samples; one-site model
- Details: both partners purified
Attribute measured: Kd (µM)

{"Binder": "VIMPx (VCP-interacting membrane protein, residues 49-122) (domain or fragment, UniProt Q9BQE4 49-122, looked up, VIMP (selenoprotein S), fragment of the cytosolic segment, residues 49-122 (stop codon after M122); also called His-VIMPx; selenoprotein S; source: E. coli BL21(DE3), purified (Ni-NTA, Superdex 75)) QKLSARLRALRQRQLDRAAAAVEPDVVVKRQEALAAARLKMQEELNAQVEKHKEKLKQLEEEKRRQKIEMWDSM", "Attribute measured": "Kd", "Value observed": 6.21}
